As shown below, each of these compounds has a reported IC50 value.
- experimental-target: MMP-2 (Gelatinase A) (Homo sapiens, UniProt P08253)
- Sequence (P08253 110-660): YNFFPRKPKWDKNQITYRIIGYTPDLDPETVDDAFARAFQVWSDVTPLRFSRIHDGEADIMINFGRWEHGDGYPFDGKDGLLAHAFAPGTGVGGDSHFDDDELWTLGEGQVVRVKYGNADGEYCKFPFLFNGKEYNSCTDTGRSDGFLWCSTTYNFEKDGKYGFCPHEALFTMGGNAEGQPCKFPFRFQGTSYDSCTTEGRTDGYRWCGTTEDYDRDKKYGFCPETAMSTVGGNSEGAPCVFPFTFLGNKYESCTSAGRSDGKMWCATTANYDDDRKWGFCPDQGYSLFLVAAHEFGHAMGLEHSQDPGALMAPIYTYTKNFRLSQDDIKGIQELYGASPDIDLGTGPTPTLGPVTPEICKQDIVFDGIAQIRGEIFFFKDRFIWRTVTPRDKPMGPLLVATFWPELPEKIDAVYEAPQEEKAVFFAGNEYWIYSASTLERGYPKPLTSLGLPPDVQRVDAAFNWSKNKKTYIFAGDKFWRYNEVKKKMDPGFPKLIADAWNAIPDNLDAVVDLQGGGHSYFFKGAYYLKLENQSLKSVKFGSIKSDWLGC
Value expressed in nM; do not type the unit.

| compound | IC50 / nM |
| --- | --- |
| O=C(O)[C@H](CS)NS(=O)(=O)c1ccc2oc3ccccc3c2c1 | 4450 |
| O=C(C[C@H](NC(=O)C(F)(F)F)C(=O)O)c1ccc2oc3ccccc3c2c1 | 720 |
| O=C(O)CCC(=O)c1ccc(N2CCC(c3ccccc3)CC2)cc1 | 1300 |
| CC(C)[C@H](NS(=O)(=O)c1ccc2oc3ccccc3c2c1)C(=O)O | 84 |
| O=C(O)[C@H](Cc1ccccc1)NS(=O)(=O)c1ccc2oc3ccccc3c2c1 | 890 |
| CC(=O)N[C@@H](CC(=O)c1ccc2oc3ccccc3c2c1)C(=O)O | 160 |
| O=C(O)CCC(O)c1ccc(-c2ccc(Cl)cc2)cc1 (racemic) | 150 |
| O=C(CCc1ccccc1)N[C@@H](CC(=O)c1ccc2oc3ccccc3c2c1)C(=O)O | 96 |

IC50 for `O=C(O)CCC(=NO)c1ccc(-c2ccc(Cl)cc2)cc1` ?
390

Try this compound too: `O=C(O)[C@H](Cc1ccccc1)NS(=O)(=O)c1ccc(N2CCC(c3ccccc3)CC2)cc1`
220

---

- experimental-target: MMP-3 (stromelysin) (Homo sapiens)
- Sequence (P08254 100-477, species assumed): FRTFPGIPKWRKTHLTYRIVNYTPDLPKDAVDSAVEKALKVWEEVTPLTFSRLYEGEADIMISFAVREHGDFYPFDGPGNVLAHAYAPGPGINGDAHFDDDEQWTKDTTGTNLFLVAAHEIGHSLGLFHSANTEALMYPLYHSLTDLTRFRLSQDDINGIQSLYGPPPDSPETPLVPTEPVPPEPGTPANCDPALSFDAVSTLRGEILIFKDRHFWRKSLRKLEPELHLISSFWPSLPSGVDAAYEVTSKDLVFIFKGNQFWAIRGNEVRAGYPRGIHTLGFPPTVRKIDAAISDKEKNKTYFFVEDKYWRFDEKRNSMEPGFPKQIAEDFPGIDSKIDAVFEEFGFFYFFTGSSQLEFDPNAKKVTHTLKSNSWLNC
pIC50: −log10 of the molar value.
Please use met whenever pIC50 is not below 7, and not met whenever it is.

| item-smiles | label-class |
| --- | --- |
| O=C(O)[C@H](Cc1ccccc1)NS(=O)(=O)c1ccc2oc3ccccc3c2c1 | not met |
| O=C(O)CCC(=O)c1ccc(N2CCN(c3ccccc3)CC2)cc1 | not met |
| COc1ccc(N2CCN(c3ccc(S(=O)(=O)N[C@@H](Cc4ccccc4)C(=O)O)cc3)CC2)cc1 | met |
| O=C(O)[C@H](Cc1ccccc1)NS(=O)(=O)c1ccc(N2CCC(Cc3ccccc3)CC2)cc1 | met |
| O=C(O)[C@H](CCc1ccccc1)NS(=O)(=O)c1ccc2oc3ccccc3c2c1 | not met |
| CC(C)C[C@H](NS(=O)(=O)c1ccc2oc3ccccc3c2c1)C(=O)O | not met |

Exam item: decide whether the reported pIC50 for `O=C(O)[C@H](Cc1ccccc1)NS(=O)(=O)c1ccc(N2CCC(c3ccccc3)CC2)cc1` is at least 7.
met
